The entries below are paired with their reported melting point.
- condition details: a range is the spread between reports

>>> recorded_measurement("Cc1ccnc(-c2cc(C)ccn2)c1")
"174 to 175 °C"

query: Quick one: melting point for `Cc1cc(Cl)nc(Cl)n1` ?
result: 46 to 46.5 °C

query: Request the reported melting point associated with `C=C(Cl)C(=O)O`
result: 65 to 66 °C

query: Request the reported melting point associated with `CCCc1ccccc1`
result: -100 to -99 °C

query: Value lookup for melting point; key = `COc1ccc(CC#N)cc1OC`
result: 62.8 to 64 °C

query: Report melting point for `CCCCOc1ccccc1` please.
result: -19.4 to -19 °C

query: Tell me the measured melting point of `c1ccc2c(c1)sc1ccccc12` , please.
result: 97 to 99 °C

query: I have this compound here, `Nc1ccc(C(=O)c2ccccc2)cc1` , and I need its recorded melting point.
result: 122 to 123 °C

query: Item under review: `O=C(O)c1cc([N+](=O)[O-])cc([N+](=O)[O-])c1O` . Reported melting point?
result: 170 to 171 °C

query: melting point lookup needed for `Clc1cc(Cl)cc(I)c1` , thanks.
result: 56 to 57 °C

query: For the compound `Cc1ccc(N)nc1` , what melting point is on record?
result: 76 to 76.5 °C

query: I would be grateful if you could share the reported melting point for `Cc1cccc(N)c1C` .
result: 2 to 3 °C

---

- condition details: a range is the spread between reports
quantity: melting point

query: Query: melting point; subject: `C[Si]1(C)N[Si](C)(C)N[Si](C)(C)N[Si](C)(C)N1`
result: 96 to 97.5 °C

---

- condition details: a range is the spread between reports
quantity: melting point

Below are worked cases with known answers.
>>> recorded_measurement("c1ccc2cc3c(ccc4ccccc43)cc2c1")
"158 to 160 °C"
>>> recorded_measurement("Cc1ccc(C(C)C)cc2c(C)ccc1-2")
"31.5 to 32 °C"
>>> recorded_measurement("O=C(O)c1ccc(CO)cc1")
"181 to 182 °C"
>>> recorded_measurement("CC(C)(C)c1ccccc1O")
"-7 to -6.8 °C"
>>> recorded_measurement("C[C@H](O)CN")
"21.5 to 25 °C"
>>> recorded_measurement("CCCCCCCC(C)C")
"-75 to -74.6 °C"
>>> recorded_measurement("C1=CCCC1")
"-135 °C"
>>> recorded_measurement("CC(=O)Nc1ccc(N)cc1")
"163 to 166 °C"

query: # melting point lookup, item `O=c1ccc2ccccc2o1`
result: 70 to 71 °C

query: Given the entry `NCCCCCCCN` , report its measured melting point.
result: 28 to 28.9 °C

query: May I ask what melting point has been recorded for `O=C1C(Br)=CC(=NCl)C=C1Br` ?
result: 80 to 83 °C

query: What value of melting point has been recorded for this entry: `CCCCC1C(=O)N(c2ccccc2)N(c2ccccc2)C1=O`
result: 105 to 107 °C

query: What does the record list as melting point for `c1ccc2c(c1)Cc1ccccc1-2` ?
result: 112 to 116 °C

query: # get_value(readout='melting point', item= `Brc1ccc(Br)cc1` )
result: 87 to 88 °C

query: // returns reported melting point for input `OCc1ccc(Cl)c(Cl)c1`
result: 36 to 38 °C

query: Any idea what melting point was measured for `CC1(C)C(=O)N(Cl)C(=O)N1Cl` ?
result: 132 to 135 °C

query: So what's the measured melting point for this one? `Cc1cc(N)nc(C)n1`
result: 183 to 185 °C

query: # query: melting point of entry `OC1CCCCCCCCC1`
result: 39.9 to 40.5 °C

query: melting point for `COc1cc(O)ccc1O` ?
result: 89 to 90 °C

query: What melting point value was documented for this compound, `CC(=O)OO` ?
result: -0.2 to 0.1 °C

query: # lookup: melting point of CC1CCC(C)C1C (stereo unspecified)
result: -116 to -112 °C
